IC50 values, listed per item
System: T47D pAKT (S473), PI3Kα H1047R mutation present
Assay: HTRF pAKT-T47D
Conditions: read-out: T47D pAKT IC50; T47D.1 cells, pAKT (S473) HTRF, 1 hour

INSERT INTO measurements (molecule, value_reported) VALUES
  ('Cc1c(C(NC(=O)Nc2cnc(N3CCC3)nc2)C(F)(F)F)oc2c(F)cc(F)cc12 (single isomer, unassigned)', '1 to 5 µM'),
  ('Cc1c(C(NC(=O)Nc2ccc(N)nc2)C(F)(F)F)oc2c(F)cc(F)cc12 (stereo not shown) [Compound 181]', '> 5 µM'),
  ('Cc1c(C(NC(=O)Nc2cnc(N3CC(C)(O)C3)nc2)C(F)(F)F)oc2c(Cl)cc(F)cc12 (single isomer, unassigned) [Compound 202]', '< 1 µM');

Ask | Please look at this molecule and report its IC50: Cc1c([C@@H](NC(=O)Nc2cccc(S(C)(=N)=O)c2)C(C)C)oc2ccc(F)cc12 (single isomer, unassigned)
Reply | 1 to 5 µM

Ask | Please look at this molecule and report its IC50: Cc1c(C(NC(=O)Nc2cnc(N3CCNC(=O)C3)nc2)C(F)(F)F)oc2c(F)cc(F)cc12 (single isomer, unassigned) [Compound 190]
Reply | > 5 µM

Ask | Please look at this molecule and report its IC50: C[C@@H]1[C@@H](O)CN1c1ncc(NC(=O)NC(c2cc3cc(F)cc(F)c3o2)C(F)(F)F)cn1 (stereo partly shown) [Compound 173]
Reply | > 5 µM

Ask | Please look at this molecule and report its IC50: Cc1c(C(NC(=O)Nc2cnc(N3CC(C(=O)O)C3)nc2)C(F)(F)F)oc2c(F)cc(F)cc12 (single isomer, unassigned) [Compound 197]
Reply | < 1 µM

Ask | Please look at this molecule and report its IC50: Cc1c(C(NC(=O)Nc2cnc(N3CC(O)C3)nc2)C(F)(F)F)oc2ccc(Cl)cc12 (racemic) [Compound 153]
Reply | > 5 µM

Ask | Please look at this molecule and report its IC50: Cc1c(C(NC(=O)Nc2ccc(N3CC(O)C3)nc2)C(F)(F)F)oc2c(F)cc(F)cc12 (racemic) [Compound 179]
Reply | > 5 µM

Ask | Please look at this molecule and report its IC50: Cc1c(C(NC(=O)Nc2cnc(N[C@@H](C)CO)nc2)C(F)(F)F)oc2c(F)cc(F)cc12 (single isomer, unassigned) [Compound 196]
Reply | < 1 µM

Ask | Please look at this molecule and report its IC50: Cc1c(C(NC(=O)Nc2cnc(N3C[C@@H](O)[C@@H]3C)nc2)C(F)(F)F)oc2c(F)cc(F)cc12 (stereo partly shown) [Compound 175]
Reply | < 1 µM

Ask | Please look at this molecule and report its IC50: "Cc1c([C@H](NC(=O)Nc2cnc(NCC(C)(C)O)nc2)C(F)(F)F)oc2c(F)cc(F)cc12"
Reply | > 5 µM

Ask | Please look at this molecule and report its IC50: Cc1c(C(NC(=O)Nc2cnc(N3CC(S(C)(=O)=O)C3)nc2)C(F)(F)F)oc2c(F)cc(F)cc12 (racemic)
Reply | < 1 µM

----------
pIC50 values, listed per item
Tested on: T47D pAKT (S473), PI3Kα H1047R mutation present
Assay: HTRF pAKT-T47D;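 note: assay medium was RPMI with 10% FBS and 0.2 units/ml bovine insulin, without phenol red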
Settings: read-out: T47D pAKT IC50; T47D.1 cells, pAKT (S473) HTRF, 1 hour
pIC50: −log10 of the molar value.

Known pIC50 results, listed for orientation:
INSERT INTO assay_data (molecule, target_or_test_system, value_reported) VALUES
  ('CCc1c(C(NC(=O)Nc2cnc(N)nc2)C(F)(F)F)oc2ccc(F)cc12 (racemic) [Compound 133]', 'T47D pAKT (S473), PI3Kα H1047R mutation present', '< 5.30'),
  ('Cc1c(C(NC(=O)Nc2cnc(N)nc2)C(F)(F)F)oc2c(C#N)cc(F)cc12 (single isomer, unassigned) [Compound 220]', 'T47D pAKT (S473), PI3Kα H1047R mutation present', '> 6.00'),
  ('Cc1c(C(NC(=O)Nc2cnc(N3CCC(O)CC3)nc2)C(F)(F)F)oc2c(F)cc(F)cc12 (single isomer, unassigned) [Compound 192]', 'T47D pAKT (S473), PI3Kα H1047R mutation present', '> 6.00');

Ask | Please look at this molecule and report its pIC50: Cc1c(C(NC(=O)Nc2ccc(N)nc2)C(F)(F)F)oc2c(F)cc(F)cc12 (stereo not shown) [Compound 182]
Reply | > 6.00
